# test_target: Tubulin Beta 2B Class IIb (TUBB2B) (Homo sapiens)
# Construct: human TUBB2B in pET28a, N-terminal His-tag, expressed in E. coli BL21 (DE3) RIL
# Sequence (Q9BVA1 whole entry): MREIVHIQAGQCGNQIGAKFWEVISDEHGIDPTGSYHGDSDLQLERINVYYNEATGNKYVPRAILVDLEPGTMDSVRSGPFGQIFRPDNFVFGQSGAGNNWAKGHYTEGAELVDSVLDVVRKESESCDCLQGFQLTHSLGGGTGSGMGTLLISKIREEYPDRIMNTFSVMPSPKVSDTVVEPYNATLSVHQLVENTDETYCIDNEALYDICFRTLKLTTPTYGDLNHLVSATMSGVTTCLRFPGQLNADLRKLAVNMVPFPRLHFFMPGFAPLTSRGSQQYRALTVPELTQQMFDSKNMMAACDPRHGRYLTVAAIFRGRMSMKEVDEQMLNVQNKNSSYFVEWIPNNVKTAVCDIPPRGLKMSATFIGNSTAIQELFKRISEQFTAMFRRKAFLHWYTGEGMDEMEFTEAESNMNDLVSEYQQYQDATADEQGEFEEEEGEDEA
# measurement_notes: ITC with purified His-tagged TUBB2B; supported by DARTS in SW620 and DLD1 lysates
assay_metric: pKd
Give bare numbers, as −log10 of the molar value.

Problem: Reported pKd, compound CC(C)C[C@H](c1c(O)c(C=O)c(O)c(C=O)c1O)[C@@H]1CC[C@@](C)(O)[C@@H]2C[C@H](C(C)(C)O)CC[C@]21C [Macrocarpal I] : ____
Solution: 5.81
